protocol text: yeast display, Sf9 membrane polyspecificity reagent, FACS + sequencing; frameworks hold sequencing errors
quantity name: polyreactivity (PSR sort gate)

Use these answered entries as a reference point.
seq text | polyreactivity (PSR sort gate)
QVQLQECGCGLVQAGCSLRLSCAASGTFSNSLKWLYCQAPGKEREFVATIGVGGSTNYADSVKGRFTISRDNAKNTVYLQMNSLKPEDTAVYYCAARLDTVTDYYYWGQGTQVTVSS | low polyreactivity
QVQLVESGGGLVQAGGSLRLSCAASGSILYYNAMGWYRQAPGKEREFVAAISDSGSSTYYADSVKGRFTITRDNAKNTVYLQMNSLKPEDTAVYYCNTEIYVDIISDYGYWGQGTQVTVSS | low polyreactivity
QVQLVESGGGLVQAGGSLRLSCAASGRIFYPYAMGWYRQAPGKERELVAAISWNGGRTYYADSVKGRFTISRDNAKNTVYLQMNSLKPEDTAVYYCNAGGYSRVTQRFFHKYDYWGQGTQVTVSS | high polyreactivity
QVQLVESGGGLVQAGGSLRLSCAASGITFYGYAMGWYRQAPGKEREFVATISKSGGITSYADSVKGRFTISRDNAKNTVYLQMNSLKPEDTAVYYCNRGKRYGGYDYWGQGSQVTVSS | low polyreactivity
QVQLVESGGGLVQAGGSLRLSCAASGSTFRGYAMGWNRPAPGKETELVAGITKRGGSTYYADSVKGRFTISRDNAKNTVYLQMNSLKPEDTAVYYCAAGKHRQAYEHDYWGQGTQVTVSS | high polyreactivity

**Q:** May I ask what polyreactivity (PSR sort gate) has been recorded for `QVQLVESGGGLVQAGGSQRLSCAASGRTFRGNAMGWYRQAPGKERELVATINSGGSTNYADSVKGRFTISRDKAKNTVYLQMNSLIPEDTAVYYCAAVKYFRWKYNYWGQGTQVTVSS` ?
**A:** high polyreactivity

**Q:** Also, `QVQLVESGGGLVQAGGSLRLSCAASRSTSYDYAMGWYRQAPGKERELVAAISGSSSTTYYADSVKGRFTISRDNAKNTVSLQMNSLKPEDTAVYYCNAVTTSGSGYGYWGQGTQVTVSS` please.
**A:** low polyreactivity

**Q:** Entry to check: `QVQLVESGGGLVQAGGSLRLSCAASGSIFGHYAMGWYRQATGKERELVATISRRGGSTYYADSVKVRFTISRDNAKNTVYLQMNSLKPEDTAVYYCAADSKGSLYGYWGQGTQVTVSS`
**A:** high polyreactivity

**Q:** Record: `QVQLVESGGGLVQAGGSLRLSCAASGSIFSENAMGWYRQAPGKERELVADITDGGGSTYYADSVKGRFTISRDNAKNTVYLQMNSLKPEDTAVYYCNAQIFFFAPWYYEYDYWGQGTQVTVSS`
**A:** low polyreactivity

**Q:** Repeat with `QVQLVESGGGLVQAGGSLRLSCAASGRTLWGNAMGWYRQAPGKERELVAAISRSGYTNYADSVKGRFTISRDNAKNTVYLLMNRLKPEDTAVYYCNARSTRSRTYQSYDYWGQGTQVTVSS`
**A:** high polyreactivity

**Q:** And for `QVQLAESGGGLVQAGGSLRLSCAASGRTFNLYAMGWYRQAPGKERELVASISSGGSTYYADSVKGRFTISRDNAKNTVYLQMNSLIPEDTAVYYCAARLAYGPRPMPSYEYYYWGQGTQVTVSS` ?
**A:** low polyreactivity

Entry source: the nanobody polyreactivity screen of Harvey et al. (2022)
